tested on: SARS-CoV-2; assay: Determination of antiviral efficacy in high-content imaging assay in Vero E6 cells infected with SARS-CoV-2 (USA-WA1/2020 isolate) at MOI 0.75 after 24 hrs; type: functional, organism-based, Chlorocebus sabaeus; settings: Severe acute respiratory syndrome coronavirus 2, Vero C1008, 24 h
Square brackets hold non-standard residues; d marks the D form. Peptide text beside a SMILES is read from it. * marks the point of attachment. ξ: configuration not given here. ξF = NC(Cc1ccccc1)C(=O)O; Cbz = O=C(OCc1ccccc1)*
measure_name: log10(EC50) (log10 of the value in nM)
A value of 2 here means EC50 of 100 in nM, since values are log10.

[
  {
    "compound": "CC(C)[C@H](NC(=O)OCc1ccccc1)C(=O)NC(C=O)Cc1ccccc1 (stereo partly drawn) (Cbz-Val-[ξF]-aldehyde)",
    "log10(EC50)": 2.34
  }
]

// below: log10(EC50) requested for another compound
Memo: `COc1cc2c(cc1N1C[C@@H](C)N[C@@H](C)C1)N(C(=O)c1ccc(-c3ccc(-c4noc(C)n4)cc3C)cc1)CC2` , reported log10(EC50): 3.08

Where do these numbers come from? They come from ChEMBL document CHEMBL4303082.
